- Tested on: gene editing with dCas9
- protocol_notes: Screen of 322 new SSAP proteins, gene editing activity with dCas9 (Table 5)
- Assay type: cell-based
- run_conditions: normalized
value_type: dCas9 with SSAP activity (normalized)
# print the numeric value only

molecule	data_value
SSAP_270: SEQ ID NO: 439; Lactococcus sp. DD01 (protein, listed as Lactococcus sp.) ANLTPTQTVLKSDAAKRKFEEVLGKKTNGFVGSLLSLVGSTNLKNVDSNSVMTAAMKAATLDLPIEPSLGFAYVIPYGREAQFQIGYKGLIQLAIRSGQVTKLNAGPVYENQFIKYDSLFEELEIDFSMPQGVEIAGYFASMELANGFRKIIYWDKEKVTAHGKRFSKSFNRSSSPWQTDFDAMATKTVLKAMLSTYAPLSTEMQQAIVADNESATPKDATPVTDDLVLEAVEDSKQIEENEIINDQVASENYQEPQGEPEVLDLEL	−0.293
SSAP_308: SEQ ID NO: 477; uncultured organism (protein, uncultured organism) SNELQNIKPEVFGEVEDKLGSLADNNGIDLPENYSARNALKQAYLKLQSKDEPVFDKYKDETIYNALLDTLTQGLNPGKDQVYYIGYGNHLTAQKSYFGNIALAKRMAGVQEVSSNVILEGDEVDISIERGQQVIESHDRNFDSMDGQVKGAYAVISFEDERKDKYEIMTLKELKQAWAQGKSFGGNGKSPHHKFTKEMAKKTVINRALKPLIKASDDSGLIKEKPKLEKLKDGQQERTEGEKIEEVDVDKEEVVEVDYDV	−1.011
SSAP_148: SEQ ID NO: 317; Corynebacterium liangguodongii (protein, listed as Corynebacterium liangguodongii) KDLETRMAANQQPAQQRPTTLADQIRGMEQQFALAMPKGAEASQLVRDALTALRQAPKLAQCTPQSVLGSLMTCAQLGLRPGVLGHAYLIPFYDRRAGGLVAQLVIGYQGLVELAHRSGQIKSLIARTVYENDVFDVDYGLEDKLVHKPYMGGDKGQPIAYYAVAKFTTGGHAFYVMSHPEMLDYRARFAKSAERGPWVDNFEAMALKTCVRQLSKWMPKSTELATAIAADESVRVDLTPDAINYPEHVDGEVVDAQGTTEDTAGEGEQSA	−1.610

Let's switch to this molecule now.
input: Reported dCas9 with SSAP activity (normalized) for SSAP_235: SEQ ID NO: 404; Streptomyces sp. adm13(2018) (protein, listed as Streptomyces sp.) SQIGNEIARQSHSPAAIIEQHKADLAVVAASHVRVDTFARLAVGVLRQNEKLAAAAANNPGSLMSALMTAARLGLEPGTEQFYLRPIKRKGQLEVQGIVGYQGIVELIYNAGAAQSVVVEVVRARDEFAWTPGALDEHRPPRWPGAMKQPHHKVDWFGDRGPLVGAYAYAVMQGGAISKVVVLNRDHIARAKAKSDGADTDYSPWRTDEEAMWLKTAARRLGKWVPTSAEKRTGVIERLDTPPAPLNEIDPDEDDEPIDGELVD : what is it?
output: −1.152
